details: human, in vivo, t1/2, mean (SD), simvastatin administered 4 hours after roxadustat, plasma
readoutName: half-life
Hey, just the number and the unit after it is fine.

Kindly note the recorded half-life for CCC(C)(C)C(=O)O[C@H]1C[C@@H](C)C=C2C=C[C@H](C)[C@H](CC[C@@H](O)C[C@@H](O)CC(=O)O)[C@H]21 , which is 3.75 h

====

details: human, in vivo, t1/2, mean (SD), simvastatin administered 2 hours before roxadustat, plasma
readoutName: half-life

Kindly note the recorded half-life for CCC(C)(C)C(=O)O[C@H]1C[C@@H](C)C=C2C=C[C@H](C)[C@H](CC[C@@H](O)C[C@@H](O)CC(=O)O)[C@H]21 [Simvastatin acid] , which is 4.6 h

====

details: human, in vivo, AUClast, mean (SD), simvastatin administered 4 hours after roxadustat, plasma
readoutName: AUC(0-t)

Kindly note the recorded AUC(0-t) for CCC(C)(C)C(=O)O[C@H]1C[C@@H](C)C=C2C=C[C@H](C)[C@H](CC[C@@H](O)C[C@@H](O)CC(=O)O)[C@H]21 [Simvastatin acid] , which is 82.8 ng·h/mL

====

test: clinical; conditions: human, in vivo, po, t1/2, median (min-max)
readoutName: half-life (h)
Form entry: value (h) — number only.

Kindly note the recorded half-life for CCC(C)(C)C(=O)O[C@H]1C[C@@H](C)C=C2C=C[C@H](C)[C@H](CC[C@@H](O)C[C@@H](O)CC(=O)O)[C@H]21 [Simvastatin acid] , which is 5.78

====

conditions: human, in vivo, tmax, median (min-max), simvastatin administered 10 hours after roxadustat, plasma
readoutName: Tmax (h)
Form entry: value (h) — number only.

Kindly note the recorded Tmax for CCC(C)(C)C(=O)O[C@H]1C[C@@H](C)C=C2C=C[C@H](C)[C@H](CC[C@@H](O)C[C@@H](O)CC(=O)O)[C@H]21 , which is 4.01

====

assay: clinical; details: human, in vivo, Cmax, GLS mean for statin alone, statin alone
readoutName: Cmax (ng/mL)
Form entry: value (ng/mL) — number only.

Kindly note the recorded Cmax for CCC(C)(C)C(=O)O[C@H]1C[C@@H](C)C=C2C=C[C@H](C)[C@H](CC[C@@H](O)C[C@@H](O)CC(=O)O)[C@H]21 , which is 1.86

====

settings: human, in vivo, AUCinf, mean (SD), simvastatin administered 4 hours after roxadustat, plasma
readoutName: AUC(0-inf) (ng·h/mL)
Form entry: value (ng·h/mL) — number only.

Kindly note the recorded AUC(0-inf) for CCC(C)(C)C(=O)O[C@H]1C[C@@H](C)C=C2C=C[C@H](C)[C@H](CC[C@@H](O)C[C@@H](O)CC(=O)O)[C@H]21 , which is 84.7

====

assay: clinical; details: human, in vivo, Cmax, GLS mean for statin alone
readoutName: Cmax (ng/mL)
Form entry: value (ng/mL) — number only.

Kindly note the recorded Cmax for CC(C)c1nc(N(C)S(C)(=O)=O)nc(-c2ccc(F)cc2)c1/C=C/[C@@H](O)C[C@@H](O)CC(=O)O , which is 4.65

====

assay: clinical; conditions: human, in vivo, po, Cmax, median (min-max), statin alone, single oral dose, plasma
readoutName: Cmax
Hey, just the number and the unit after it is fine.

Kindly note the recorded Cmax for CCC(C)(C)C(=O)O[C@H]1C[C@@H](C)C=C2C=C[C@H](C)[C@H](CC[C@@H](O)C[C@@H](O)CC(=O)O)[C@H]21 [Simvastatin acid] , which is 2.06 ng/mL
